Test system: UO-31 renal
TEST_METHOD_NOTES: NCI-60 one-dose screen, 48 h (100 = growth as untreated, 0 = no growth, -100 = all killed)
REPORTED_CONDITIONS: 10 µM unless noted
About 83,000 compounds went through this panel and 20% of them were active in at least one assay; those are over-represented in the sample as a whole. The source made the active and inactive calls. The calls were made as follows: active = growth percent below 10; inactive = the rest.
READOUT_NAME: growth

Report growth under test system UO-31 renal for CCCCCCCCCCCCCC1=NC(C)(C)CN1C(C)C .
-65.1% (active)

Provide measured growth on UO-31 renal for COc1cc(CN2CCC(N3CCCC3=O)c3ccccc32)cc(OC)c1OC (centres undefined) please.
56% (inactive)

GET growth where system = UO-31 renal and item = Cc1ccc(C(CN(C)C)C(=O)c2ccccc2)cc1 (centres undefined)
53.5% (inactive)

For UO-31 renal, give the measured growth of the entry CNC(=O)c1c(NC(=O)c2ccc(C(C)C)cc2)sc2c1CCC(=O)C2
-99.6% (active)

Provide UO-31 renal growth reading for O=C(CC(=O)C(F)(F)C(F)(F)C(F)(F)F)c1cc2ccccc2o1 .
87.5% (inactive)

Answer briefly: growth recorded on UO-31 renal for CC(C)CCC(=O)[C@@H](C)[C@H]1[C@@H](OC2OCC(O)C(O)C2NS(C)(=O)=O)C[C@H]2[C@@H]3CC=C4C[C@@H](O)CC[C@]4(C)[C@H]3CC[C@]12C (some centres undefined)
-16.1% (active)

Give UO-31 renal growth for the following molecule: Nc1c(Br)cc2c(c1Br)Cc1cc(Cl)ccc1-2
77.6% (inactive)

Supply growth measured with UO-31 renal for CN1C2CCC1/C(=C\c1ccc(Cl)cc1)C(=O)/C2=C/c1ccc(Cl)cc1 .
58.4% (inactive)

Look up UO-31 renal data: growth of COc1ccc(CC2c3cc(OC)c(OC)cc3CC[N+]2(C)CCC(=O)OCCCCCOC(=O)CC[N+]2(C)CCc3cc(OC)c(OC)cc3C2Cc2ccc(OC)c(OC)c2)cc1OC (centres undefined) , then report it.
66.2% (inactive)

* * *

Test system: DU-145 prostate
TEST_METHOD_NOTES: NCI-60 one-dose screen, 48 h (100 = growth as untreated, 0 = no growth, -100 = all killed)
REPORTED_CONDITIONS: 10 µM unless noted
The panel holds about 83,000 compounds, 20% with a hit somewhere; the sample as a whole holds those more often.
Exercise: for every item that follows, state its recorded growth.
Numeric answer only, unit % assumed.

Provide measured growth value, entry: COc1ccc(-c2ccc(-c3ccc(C(=N)N)s3)s2)cc1
-95.5

Query growth for Brc1ccsc1Br
126

State its growth: N=C(N)c1ccc(-c2ccc(-c3cccs3)s2)cc1F
-77.4

// Input: O=C(Nc1cccc(C2=NCCN2)c1)c1ccc(N=Nc2ccc(C(=O)Nc3cccc(C4=NCCN4)c3)cc2)cc1 . Output its growth only.
59.1

Note growth for the compound shown: CCOc1cc(/C=N\NC(=O)C[N+](C)(C)C)ccc1O
116

Annotate the compound O=C(Nc1ccc(Br)cc1)Nc1cccc(Br)c1 with its measured growth.
30.7

Please report the measured growth for CN1C(=O)N(C)C2C1NN=c1s/c(=C\c3ccc(C(F)(F)F)cc3)c(=O)n12 (stereo unspecified)
9.33

Write down growth measured for item O=C(Nc1ccc([N+](=O)[O-])cc1)c1cc2ccccc2cc1O
103

Specify measured growth for COc1cccc(C2C(C#N)=C(N)Oc3cc4c(cc32)OCO4)c1 (stereo unspecified) .
1.58

For Cc1c(C(N)=O)sc2ncn(CC(=O)NN=C3CCCCC3)c(=O)c12 , write its growth.
111

Provide growth value for the following compound: O=C(CC(=O)c1cccc(Cl)c1)c1cccc(Cl)c1
42.6

* * *

Tested on: NCI-H460 lung
TEST_METHOD_NOTES: NCI-60 one-dose screen, 48 h (100 = growth as untreated, 0 = no growth, -100 = all killed)
REPORTED_CONDITIONS: 10 µM unless noted
About 83,000 compounds went through this panel and 20% of them were active in at least one assay; those are over-represented in the sample as a whole.
READOUT_NAME: growth (%)
A number alone suffices; assume %.

For the molecule COc1cc(C2CC(=O)Nc3c2cnn3C)cc(OC)c1OC (stereo not given) , give its measured growth value.
117

For the molecule O=C(Nc1ccccc1)c1cc2ccccc2s1 , report growth.
39.7

Give me measured growth, please, for this molecule: O=c1c2cc(Br)cc(Br)c2nc(-c2ccc(Cl)cc2)n1/N=C/c1cccc(F)c1
40.1

Identify the reported growth for the following entry. O=C(Nc1ccc(-n2ccc3c(NC(=O)c4ccccc4)nccc32)cc1)c1ccc(N2CCOCC2)c(C(F)(F)F)c1
3.48

Entry C=C(c1ccc(C(=O)NCCCn2ccnc2)cc1)c1cc2c(cc1C)C(C)(C)CCC2(C)C needs its growth filled in; supply it.
13.9

* * *

Test system: NCI-H322M lung
TEST_METHOD_NOTES: NCI-60 one-dose screen, 48 h
REPORTED_CONDITIONS: 10 µM unless noted
About 83,000 compounds went through this panel and 20% of them were active in at least one assay; those are over-represented in the sample as a whole. Active and inactive are the calls of the source. Rule for the calls: active = growth percent below 10; inactive = the rest.
Bench note: report the call from True for active, False for inactive

I'd appreciate the recorded outcome for C[C@@H]1CC2C3CCC4=CC(=O)C=C[C@]4(C)[C@@]3(Cl)[C@@H](O)C[C@]2(C)[C@@]1(OC(=O)c1ccco1)C(=O)CCl (stereo partly specified) from this test.
False

Answer briefly: the call reported for N/C(=C\C(=O)n1nc(-c2ccccc2)cc1N)c1ccccc1 in this assay.
False

Hi team, can someone confirm the assay call for Cc1cc(O)c2cc3c(O)c(O)ccc3cc2c1 ?
False

Record request — test call for CC(=O)OC[C@H]1O[C@@H](n2c(=O)cc(N)[nH]c2=O)C(OC(C)=O)[C@@H]1OC(C)=O (stereo partly specified)
False

Query: recorded result category for Cc1c(C(=O)Nc2ccccc2F)sc2c(=O)[nH]cnc12 in this test
False

Lab log entry: CCC1N=C(N)N=C(N)N1c1ccc(Cl)cc1 (stereo unspecified) — outcome as called in the assay?
False

Call for entry CCCCOC(=O)c1cc(O)c(O)c(O)c1 :
False

Lab log entry: O=C(O)c1cc2cc(OCc3ccccc3)ccc2[nH]1 — outcome as called in the assay?
False

Recorded test outcome, item OC(COCc1ccccc1)COCc1ccccc1
False

# lookup: test call for NS(=O)(=O)c1ccc(CCn2c(SCC(=O)N/N=C/c3cc4ccccc4[nH]3)nc3ccccc3c2=O)cc1
False

For CN1CCCN(CCNc2nccc(-c3c(-c4cccc(O)c4)nc4sccn34)n2)S1(=O)=O , what call appears in the results of this test?
False

Which outcome did this test record for the molecule O=C(NCCN1CCCC1)n1cc(-c2ccncc2)c(-c2cc(O)cc(Cl)c2)n1 ?
False

Dear colleague, could you share the recorded outcome for COc1ccc(-c2nc3ccccc3n3cccc23)cc1 when you have a moment?
False

I would be grateful if you could indicate the recorded call for C=CCOC(=O)C1=C(C)NC2=C(C(=O)CC(C)(C)C2)C1c1ccc(OC)cc1 (stereo unspecified) .
False

Dear all, I need the recorded test outcome for N/C(=N\O)c1ncc(-c2ccc(C(F)(F)F)cc2)c(NC2CCCCCC2)n1 , thank you.
True

Give the logged outcome of this assay for the following molecule: O=C(CC(=O)c1ccccc1F)Nc1ccc([N+](=O)[O-])cc1
False

Please share the test call associated with O=C(O)C(CCc1ccccc1)NCc1ccccc1 (stereo unspecified) .
False

Each molecule tested received a call. Report the one for COc1ccc(-c2cc(-c3cn(-c4cccc(Cl)c4)nc3-c3ccc(OC)cc3)[nH]c(=S)n2)cc1 .
False

For C=C1C(=O)O[C@H]2[C@H]1CC/C(COC(=O)NCc1[nH]nc3ccccc13)=C\CC[C@@]1(C)O[C@@H]21 , which call appears in the assay record?
False

How was CCN(CC)C(=O)O/N=C(/C)c1ccccc1 classified in this test?
False

Record request — test call for CCCCOc1nc2ccc(C)cc2cc1/C=C/C(=O)/C=C(O)/C=C/c1cc2cc(C)ccc2nc1OCCCC
False

* * *

Tested on: UO-31 renal
TEST_METHOD_NOTES: NCI-60 one-dose screen, 48 h (100 = growth as untreated, 0 = no growth, -100 = all killed)
REPORTED_CONDITIONS: 10 µM unless noted
Compounds without any hit were thinned out: in the full panel of roughly 83,000, 20% have a hit. The source made the active and inactive calls. Rule for the calls: active = growth percent below 10; inactive = the rest.
READOUT_NAME: growth

Answer with the recorded growth of Nc1c(C(=O)Nc2ccccc2)sc2nc3c(cc12)C(=O)CCC3 only.
71.1% (inactive)

Give the reported growth for this molecule. C=C1C(=O)O[C@H]2[C@H]1CC/C(COC(=O)NCc1[nH]nc3ccccc13)=C\CC[C@@]1(C)O[C@@H]21
71.5% (inactive)

Provide measured growth value, entry: Brc1ccsc1Br
91.3% (inactive)

Give the reported growth for this molecule. N#CCCn1cnc2c(N)ncnc21
116% (inactive)

Given the molecule COc1ccc(/C=N/NC(N)=S)c(OC)n1 , write its reported growth.
95.2% (inactive)

Determine its reported growth: COc1cc(NCC(O)CN(CC(C)C)CC(C)C)c2ncccc2c1 (stereo unspecified)
88.6% (inactive)
